settings: in ethylbenzene, 290.65 K

# cpd.smiles, solubility (mole fraction)
rows = [
    ("O=[N+]([O-])c1cccc2c([N+](=O)[O-])cccc12", 0.00104),
]

###

settings: in n-propanol, 298.15 K

# cpd.smiles, solubility (mole fraction)
rows = [
    ("O=[N+]([O-])c1cccc2c([N+](=O)[O-])cccc12", "8.45e-05"),
]

###

details: in toluene, 283.15 K
test.readout: solubility (mole fraction)

# cpd.smiles, meas.value
measured = [
    ("O=[N+]([O-])c1cccc2c([N+](=O)[O-])cccc12", 0.00106),
]

###

conditions: in ethanol, 290.65 K
test.readout: solubility (mole fraction)

# cpd.smiles, test.readout, meas.value
rows = [
    ("O=[N+]([O-])c1cccc2c([N+](=O)[O-])cccc12", "solubility (mole fraction)", "5.43e-05"),
]

###

conditions: in toluene, 288.15 K

# cpd.smiles, solubility (mole fraction)
records = [
    ("O=[N+]([O-])c1cccc2c([N+](=O)[O-])cccc12", 0.00129),
]

###

settings: in toluene, 280.65 K

# cpd.smiles, solubility (mole fraction)
measured = [
    ("O=[N+]([O-])c1cccc2c([N+](=O)[O-])cccc12", 0.000958),
]

###

details: in ethanol, 313.15 K

# cpd.smiles, solubility (mole fraction)
measured = [
    ("O=[N+]([O-])c1cccc2c([N+](=O)[O-])cccc12", 0.000157),
]

###

conditions: in chloroform, 275.65 K

# cpd.smiles, solubility (mole fraction)
records = [
    ("O=[N+]([O-])c1cccc2c([N+](=O)[O-])cccc12", 0.000731),
]

###

conditions: in chloroform, 295.65 K

# cpd.smiles, solubility (mole fraction)
records = [
    ("O=[N+]([O-])c1cccc2c([N+](=O)[O-])cccc12", 0.00213),
]

###

conditions: in toluene, 273.15 K

# cpd.smiles, solubility (mole fraction)
records = [
    ("O=[N+]([O-])c1cccc2c([N+](=O)[O-])cccc12", 0.000683),
]

###

details: in ethylbenzene, 283.15 K

# cpd.smiles, solubility (mole fraction)
records = [
    ("O=[N+]([O-])c1cccc2c([N+](=O)[O-])cccc12", 0.000785),
]

###

conditions: in acetone, 303.15 K
test.readout: solubility (mole fraction)

# cpd.smiles, meas.value
records = [
    ("O=[N+]([O-])c1cccc2c([N+](=O)[O-])cccc12", 0.0019),
]

###

settings: in ethylbenzene, 273.15 K
test.readout: solubility (mole fraction)

# cpd.smiles, meas.value
records = [
    ("O=[N+]([O-])c1cccc2c([N+](=O)[O-])cccc12", 0.000522),
]

###

settings: in ethyl acetate, 308.15 K

# cpd.smiles, solubility (mole fraction)
data = [
    ("O=[N+]([O-])c1cccc2c([N+](=O)[O-])cccc12", 0.00238),
]

###

conditions: in toluene, 305.65 K

# cpd.smiles, solubility (mole fraction)
rows = [
    ("O=[N+]([O-])c1cccc2c([N+](=O)[O-])cccc12", 0.00242),
]

###

settings: in ethanol, 283.15 K
test.readout: solubility (mole fraction)

# cpd.smiles, meas.value
data = [
    ("O=[N+]([O-])c1cccc2c([N+](=O)[O-])cccc12", "3.66e-05"),
]

###

settings: in acetonitrile, 288.15 K

# cpd.smiles, solubility (mole fraction)
data = [
    ("O=[N+]([O-])c1cccc2c([N+](=O)[O-])cccc12", 0.000468),
]

###

conditions: in n-propanol, 293.15 K

# cpd.smiles, solubility (mole fraction)
measured = [
    ("O=[N+]([O-])c1cccc2c([N+](=O)[O-])cccc12", "6.54e-05"),
]

###

conditions: in ethanol, 273.15 K

# cpd.smiles, solubility (mole fraction)
measured = [
    ("O=[N+]([O-])c1cccc2c([N+](=O)[O-])cccc12", "1.99e-05"),
]

###

conditions: in ethyl acetate, 290.65 K

# cpd.smiles, solubility (mole fraction)
rows = [
    ("O=[N+]([O-])c1cccc2c([N+](=O)[O-])cccc12", 0.00123),
]

###

settings: in acetonitrile, 308.15 K
test.readout: solubility (mole fraction)

# cpd.smiles, test.readout, meas.value
rows = [
    ("O=[N+]([O-])c1cccc2c([N+](=O)[O-])cccc12", "solubility (mole fraction)", 0.00111),
]

###

details: in ethanol, 305.65 K
test.readout: solubility (mole fraction)

# cpd.smiles, test.readout, meas.value
measured = [
    ("O=[N+]([O-])c1cccc2c([N+](=O)[O-])cccc12", "solubility (mole fraction)", 0.000109),
]

###

settings: in chloroform, 293.15 K
test.readout: solubility (mole fraction)

# cpd.smiles, meas.value
data = [
    ("O=[N+]([O-])c1cccc2c([N+](=O)[O-])cccc12", 0.00192),
]

###

settings: in ethanol, 293.15 K

# cpd.smiles, solubility (mole fraction)
measured = [
    ("O=[N+]([O-])c1cccc2c([N+](=O)[O-])cccc12", "6.15e-05"),
]

###

details: in ethanol, 280.65 K

# cpd.smiles, solubility (mole fraction)
rows = [
    ("O=[N+]([O-])c1cccc2c([N+](=O)[O-])cccc12", "3.1e-05"),
]

###

details: in acetonitrile, 285.65 K
test.readout: solubility (mole fraction)

# cpd.smiles, test.readout, meas.value
rows = [
    ("O=[N+]([O-])c1cccc2c([N+](=O)[O-])cccc12", "solubility (mole fraction)", 0.000415),
]

###

conditions: in chloroform, 310.65 K

# cpd.smiles, solubility (mole fraction)
records = [
    ("O=[N+]([O-])c1cccc2c([N+](=O)[O-])cccc12", 0.00408),
]

###

conditions: in ethylbenzene, 280.65 K
test.readout: solubility (mole fraction)

# cpd.smiles, meas.value
measured = [
    ("O=[N+]([O-])c1cccc2c([N+](=O)[O-])cccc12", 0.000714),
]

###

conditions: in chloroform, 273.15 K
test.readout: solubility (mole fraction)

# cpd.smiles, test.readout, meas.value
measured = [
    ("O=[N+]([O-])c1cccc2c([N+](=O)[O-])cccc12", "solubility (mole fraction)", 0.000629),
]

###

conditions: in acetone, 300.65 K
test.readout: solubility (mole fraction)

# cpd.smiles, test.readout, meas.value
rows = [
    ("O=[N+]([O-])c1cccc2c([N+](=O)[O-])cccc12", "solubility (mole fraction)", 0.00174),
]

###

conditions: in chloroform, 298.15 K

# cpd.smiles, solubility (mole fraction)
data = [
    ("O=[N+]([O-])c1cccc2c([N+](=O)[O-])cccc12", 0.00238),
]

###

conditions: in ethyl acetate, 285.65 K

# cpd.smiles, solubility (mole fraction)
measured = [
    ("O=[N+]([O-])c1cccc2c([N+](=O)[O-])cccc12", 0.000998),
]

###

conditions: in chloroform, 283.15 K
test.readout: solubility (mole fraction)

# cpd.smiles, meas.value
measured = [
    ("O=[N+]([O-])c1cccc2c([N+](=O)[O-])cccc12", 0.00118),
]

###

conditions: in toluene, 290.65 K

# cpd.smiles, solubility (mole fraction)
measured = [
    ("O=[N+]([O-])c1cccc2c([N+](=O)[O-])cccc12", 0.00141),
]

###

details: in toluene, 313.15 K

# cpd.smiles, solubility (mole fraction)
data = [
    ("O=[N+]([O-])c1cccc2c([N+](=O)[O-])cccc12", 0.00309),
]

###

settings: in ethanol, 285.65 K
test.readout: solubility (mole fraction)

# cpd.smiles, meas.value
records = [
    ("O=[N+]([O-])c1cccc2c([N+](=O)[O-])cccc12", "4.16e-05"),
]

###

settings: in ethanol, 288.15 K

# cpd.smiles, solubility (mole fraction)
measured = [
    ("O=[N+]([O-])c1cccc2c([N+](=O)[O-])cccc12", "4.81e-05"),
]

###

conditions: in ethanol, 310.65 K

# cpd.smiles, solubility (mole fraction)
data = [
    ("O=[N+]([O-])c1cccc2c([N+](=O)[O-])cccc12", 0.000139),
]

###

conditions: in chloroform, 288.15 K

# cpd.smiles, solubility (mole fraction)
measured = [
    ("O=[N+]([O-])c1cccc2c([N+](=O)[O-])cccc12", 0.00153),
]

###

settings: in acetonitrile, 303.15 K

# cpd.smiles, solubility (mole fraction)
measured = [
    ("O=[N+]([O-])c1cccc2c([N+](=O)[O-])cccc12", 0.000914),
]

###

conditions: in ethyl acetate, 310.65 K

# cpd.smiles, solubility (mole fraction)
data = [
    ("O=[N+]([O-])c1cccc2c([N+](=O)[O-])cccc12", 0.00258),
]

###

conditions: in ethylbenzene, 288.15 K

# cpd.smiles, solubility (mole fraction)
records = [
    ("O=[N+]([O-])c1cccc2c([N+](=O)[O-])cccc12", 0.000941),
]
